Measured pIC50, listed per entry.
molecular target: Calcium-dependent protein kinase 1 (Plasmodium falciparum); assay: MMV: CDPK1 Protein kinase inhibition assay using recombinant PfCDPK1, syntide 2 peptide substrate, ATP and KinaseGlo to measure % inhibition at 1 uM MMV box compound.
Sequence (P62344 whole entry): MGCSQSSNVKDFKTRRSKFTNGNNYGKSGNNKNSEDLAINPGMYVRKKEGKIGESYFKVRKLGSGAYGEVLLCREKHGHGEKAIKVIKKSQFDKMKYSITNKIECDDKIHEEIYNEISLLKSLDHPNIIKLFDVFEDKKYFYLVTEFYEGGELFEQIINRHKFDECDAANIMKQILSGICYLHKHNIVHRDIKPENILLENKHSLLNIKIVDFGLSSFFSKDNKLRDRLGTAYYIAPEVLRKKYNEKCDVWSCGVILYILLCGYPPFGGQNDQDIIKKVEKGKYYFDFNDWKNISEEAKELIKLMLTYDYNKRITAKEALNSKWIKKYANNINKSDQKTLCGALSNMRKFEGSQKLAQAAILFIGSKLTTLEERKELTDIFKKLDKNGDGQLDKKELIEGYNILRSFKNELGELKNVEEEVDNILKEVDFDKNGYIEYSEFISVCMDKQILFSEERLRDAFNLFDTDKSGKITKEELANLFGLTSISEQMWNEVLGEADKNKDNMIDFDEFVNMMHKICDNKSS
pIC50: −log10 of the molar value.

Field: example entries. Status: answers known.
CCCCCCc1cc2cc(-c3nc4ccccc4[nH]3)c(=Nc3ccccc3C)oc2cc1O: < 6.00
CCCCCCc1cc2cc(-c3csc(C=Cc4ccccc4)n3)c(=O)oc2cc1O: < 6.00
CSc1ccccc1C(=O)Nc1nc(-c2ccccn2)cs1: < 6.00
COc1ccc(C(=O)Nc2ccc(Cl)cc2C(=O)Nc2ccncc2)cc1: < 6.00
O=C(NCC(c1ccsc1)N1CCCCCC1)c1ccc(C(F)(F)F)cc1 (configuration not stated): < 6.00
Cc1ccc2cc3c(N)c4c(C)ccc(C)c4nc3nc2c1: < 6.00
Oc1ccccc1CNCC12CC3CC(CC(C3)C1)C2: < 6.00
Cc1cc(C=C2SC(=Nc3ccccc3)N(C3CCCC3)C2=O)c(C)n1-c1ccc(Cl)cc1: < 6.00

// query Provide the documented pIC50 with Calcium-dependent protein kinase 1 (Plasmodium falciparum) as the system for Cc1ccc(-c2cc3c(nn2)-c2ccccc2C3=O)cc1
// result < 6.00

// query Same again, this time with CC(C)OCc1cc(CN2CCN(c3cccc(Cl)c3)CC2)c(O)c2ncccc12
// result < 6.00

// query Same again, this time with COc1ccc(C2c3ccc4ccccc4c3Oc3ncn(CCCN(C)C)c(=N)c32)cc1 (configuration not stated)
// result < 6.00

// query Same again, this time with Cc1cc(N(C)C)nc(Nc2ccc(NC(=O)Nc3ccccc3)cc2)n1
// result < 6.00

// query Same again, this time with O=C(NC1CCCC1)c1ccc(N2CCC(NCc3cccc(C(F)(F)F)c3)CC2)cc1
// result < 6.00

// query Same again, this time with CCN1CCN(c2c(C(=O)c3ccccc3)cnc3cc(OC)c(OC)cc23)CC1
// result < 6.00

// query Same again, this time with C=CC12CCN(CC1)C(C(O)c1ccnc3ccc(OC)cc13)C2 (configuration not stated)
// result < 6.00

// query Same again, this time with Cc1ccc(Nc2nc(NCCO)c3ccccc3n2)cc1C
// result < 6.00

// query Same again, this time with Cc1ccccc1OCCSc1nc2ccc(NC(=O)c3ccccc3)cc2s1
// result < 6.00

----------
target: Calcium-dependent protein kinase 1 (Plasmodium falciparum); test: MMV: CDPK1 Protein kinase inhibition assay using recombinant PfCDPK1, syntide 2 peptide substrate, ATP and KinaseGlo to measure % inhibition at 1 uM MMV box compound.
pIC50: −log10 of the molar value.
Measured pIC50, listed per entry.

// query May I ask what pIC50 has been recorded for Cc1cc(Nc2ccc(C)c(Cl)c2)n2nc(C(F)(F)F)nc2n1 ?
// result < 6.00

// query Same again, this time with C[n+]1c2ccccc2nc2ccc(NCCO)cc21
// result < 6.00

// query Same again, this time with CCN(CC)c1ccc(NC(=O)c2cccs2)cc1
// result < 6.00

// query Same again, this time with Cc1ccc(F)cc1NC(=O)c1cc(Cl)ccc1Nc1ccccc1
// result < 6.00

// query Same again, this time with COCCNCC(O)Cn1c2ccc(Cl)cc2c2cc(Cl)ccc21 (centres undefined)
// result < 6.00

----------
target: Proline--tRNA ligase (Plasmodium falciparum (isolate 3D7), UniProt Q8I5R7); assay: MMV: ProRS recombinant Plasmodium falciparum Prolyl-tRNA-synthetase, assay with yeast tRNA, ATP, and proline and 3 uM MMV malaria box compound, assay read out with kinase glo as % inhibition.
Sequence (Q8I5R7 whole entry): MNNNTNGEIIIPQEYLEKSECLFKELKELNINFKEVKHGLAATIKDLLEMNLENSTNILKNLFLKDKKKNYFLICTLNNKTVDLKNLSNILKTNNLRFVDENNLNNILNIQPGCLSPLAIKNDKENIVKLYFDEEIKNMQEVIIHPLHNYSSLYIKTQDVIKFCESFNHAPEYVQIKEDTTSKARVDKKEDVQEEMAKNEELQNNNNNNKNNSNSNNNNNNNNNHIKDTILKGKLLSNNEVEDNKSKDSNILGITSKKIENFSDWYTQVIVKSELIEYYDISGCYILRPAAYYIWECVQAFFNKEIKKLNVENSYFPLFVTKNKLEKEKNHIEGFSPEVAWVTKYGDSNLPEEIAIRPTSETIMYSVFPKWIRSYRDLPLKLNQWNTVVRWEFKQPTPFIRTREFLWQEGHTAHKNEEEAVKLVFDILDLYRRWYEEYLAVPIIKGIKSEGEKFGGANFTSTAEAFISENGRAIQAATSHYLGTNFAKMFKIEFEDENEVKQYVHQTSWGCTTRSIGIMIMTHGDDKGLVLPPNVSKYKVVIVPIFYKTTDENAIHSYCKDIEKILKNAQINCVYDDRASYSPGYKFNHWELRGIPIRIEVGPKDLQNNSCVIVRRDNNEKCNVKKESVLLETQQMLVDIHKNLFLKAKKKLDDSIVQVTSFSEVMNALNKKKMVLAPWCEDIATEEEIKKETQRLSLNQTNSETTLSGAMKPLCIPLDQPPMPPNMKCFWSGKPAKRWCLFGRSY
pIC50: −log10 of the molar value.
Readout name: pIC50

O=C(O)C1Cc2c([nH]c3ccccc23)C(c2ccc(Cl)cc2Cl)N1 (stereo not drawn): < 5.60
O=C(Cc1ccccc1)NC(c1ccc(Cl)cc1)c1c(O)ccc2ccccc12 (stereo not drawn): < 5.60

// query May I ask what pIC50 has been recorded for CCOC(=O)C1=C(C)N=c2sc(=Cc3ccccc3O)c(=O)n2C1c1ccc(OC)c2ccccc12 (stereo not drawn) ?
// result < 5.60

----------
Measured IC50, listed per entry.
target: Calcium-dependent protein kinase 4 (Plasmodium falciparum (isolate 3D7)); experiment: MMV: CDPK4 Protein kinase inhibition assay using recombinant PfCDPK4, syntide2 peptide substrate, ATP and KinaseGlo to measure % inhibition at 1 uM MMV box compound.
Sequence (Q8IBS5 whole entry): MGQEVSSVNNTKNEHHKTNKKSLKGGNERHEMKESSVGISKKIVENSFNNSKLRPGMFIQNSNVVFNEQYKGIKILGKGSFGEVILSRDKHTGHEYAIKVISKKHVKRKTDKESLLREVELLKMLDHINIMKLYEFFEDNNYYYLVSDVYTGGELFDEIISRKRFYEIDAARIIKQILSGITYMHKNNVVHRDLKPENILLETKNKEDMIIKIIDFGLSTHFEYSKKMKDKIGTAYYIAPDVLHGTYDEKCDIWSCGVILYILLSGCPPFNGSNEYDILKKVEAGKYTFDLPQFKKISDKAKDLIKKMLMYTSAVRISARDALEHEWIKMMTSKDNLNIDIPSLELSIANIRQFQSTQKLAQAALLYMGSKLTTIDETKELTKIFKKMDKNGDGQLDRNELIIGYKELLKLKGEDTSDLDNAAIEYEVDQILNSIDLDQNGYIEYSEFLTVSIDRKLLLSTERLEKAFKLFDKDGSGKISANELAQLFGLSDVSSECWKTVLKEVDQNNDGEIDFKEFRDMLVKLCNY

Field: example entries. Status: answers known.
CCOc1ccc(-c2nc(NC(=O)c3cccc(S(C)(=O)=O)c3)sc2C)cc1: > 1 µM
COCCNC(=O)c1ccc(OC2CCN(Cc3ccc(F)c(F)c3)CC2)c(Cl)c1: > 1 µM
OC(CNCc1ccccc1)Cn1c2ccccc2c2ccccc21 (configuration not stated): > 1 µM

// query May I ask what IC50 has been recorded for Cc1ccc(-c2cc3c(SCC(=O)Nc4cc(C(F)(F)F)ccc4Cl)nccn3n2)cc1 ?
// result > 1 µM

// query Same again, this time with CCOC(=O)C1=C(c2ccccc2)N=c2sc(=Cc3cc(C)n(-c4ccc(F)cc4)c3C)c(=O)n2C1c1cccc(OC)c1OC (configuration not stated)
// result > 1 µM

// query Same again, this time with CCN(CC)CCCNc1nc(-c2ccc(Cl)cc2)nc2ccccc12
// result > 1 µM

// query Same again, this time with FC(F)(F)c1cccc(CNC2CCN(CCc3ccccc3)CC2)c1
// result > 1 µM

// query Same again, this time with CCOC(=O)c1cn(CC)c2cc(N3CCCCC3)c(F)cc2c1=O
// result > 1 µM

// query Same again, this time with CCCc1c(CC)c(=N)c2ccccc2n1C
// result > 1 µM

// query Same again, this time with COc1cc(-c2nc(-c3ccccc3)c(-c3ccccc3)[nH]2)cc(OC)c1O
// result > 1 µM

// query Same again, this time with O=C(Nc1ccccc1O)c1ccc(Oc2cccc(C(=O)Nc3ccccc3O)c2)cc1
// result > 1 µM

// query Same again, this time with CC(Oc1ccc(NC(=O)c2cccs2)cc1)C(=O)c1ccc(Cl)cc1 (configuration not stated)
// result > 1 µM

----------
molecular target: Proline--tRNA ligase (Plasmodium falciparum (isolate 3D7)); assay: MMV: ProRS recombinant Plasmodium falciparum Prolyl-tRNA-synthetase, assay with yeast tRNA, ATP, and proline and 3 uM MMV malaria box compound, assay read out with kinase glo as % inhibition.; format: functional
Measured IC50, listed per entry.

N=c1c2ccccc2nnn1-c1cccc(C(F)(F)F)c1: > 2500 nM

// query May I ask what IC50 has been recorded for COc1ccc(C(=O)Nc2ccc(Cl)cc2C(=O)Nc2ccncc2)cc1 ?
// result > 2500 nM

// query Same again, this time with CCOc1c(Cl)cc(CNC(C)C(O)c2ccccc2)cc1OC (stereo unspecified)
// result > 2500 nM

// query Same again, this time with CC(C)(C)CC(C)(C)NCC(O)COc1ccc2c(c1)CCC2 (stereo unspecified)
// result > 2500 nM

// query Same again, this time with Cc1ccc(N2C(=O)C3C(C2=O)C2(c4ccccc4)C(=O)C3(c3ccccc3)C(c3ccccc3)=C2c2ccccc2)cc1 (stereo unspecified)
// result > 2500 nM

// query Same again, this time with CCN(Cc1ccccc1)C1CCN(Cc2cc(Br)ccc2O)CC1
// result > 2500 nM

// query Same again, this time with CCN1CCN(c2c(C(=O)c3ccccc3)cnc3cc(OC)c(OC)cc23)CC1
// result > 2500 nM
